target: HSP-90 (Homo sapiens, UniProt P07900)
Construct: fused on or other part: 6-His tag at the C-terminus
measurement-protocol: HSP-90 SPA (scintillation proximity assay) competition binding assay, displacement of tritiated propyl-Geldanamycin
stated-conditions: read-out: % inhibition @ 10 μM
inhibition at 10 µM for assorted compounds
State the answer as a number, implicitly in %.

O=C(c1ccc(O)cc1O)N1CCC(c2ccnc(C(F)(F)F)n2)CC1 [Example 83]	35
O=C(c1ccc(O)cc1O)N1CCCC(COc2cccc(Cl)c2)C1 (stereo not drawn) [Example 59]	82.9
O=C(c1ccc(O)cc1O)N1CCc2ccccc2C1 [Example 109]	87.2
O=C(c1ccc(O)cc1O)N1CCN(c2cnccn2)CC(CO)C1 (stereo not drawn) [Example 124]	18.1
O=C(c1ccc(O)cc1O)N1CCOC(COc2cc(F)cc(F)c2)C1 (stereo not drawn) [Example 114]	83.2

Lab book: inhibition at 10 µM of C[C@H]([C@@H](O)c1ccccc1)N(C)C(=O)c1ccc(O)cc1O [Example 53] noted as 7.3

Lab book: inhibition at 10 µM of O=C(c1ccc(O)cc1O)N1CCC(Oc2ccc(Cl)cc2)CC1 [Example 68] noted as 78.6

Lab book: inhibition at 10 µM of O=C(c1ccc(O)cc1O)N1CCOC[C@@H]1c1ccccc1 [Example 135] noted as 44.7

Lab book: inhibition at 10 µM of O=C(c1ccc(O)cc1O)N1CCC(COc2cccc(Cl)c2)C1 (stereo not drawn) [Example 87] noted as 65

====

target: HSP-90 (Homo sapiens)
Construct: fused on or other part: 6-His tag at the C-terminus
measurement-protocol: HSP-90 SPA (scintillation proximity assay) competition binding assay, displacement of tritiated propyl-Geldanamycin
stated-conditions: read-out: % inhibition @ 1 μM
Method: Compounds of the present invention were evaluated for potency against HSP-90 using a SPA (scintillation proximity assay) competition binding assay. […] Tritiated pGA, which contains a tritiated propyl-amine group added at the #17 position, binds HSP-90 and brings the isotope into proximity with the beads. […] This reduction in signal is used to quantify the extent to which the inhibitor/compound is competitive with pGA. […]
# inhibition at 1 µM >= 20% gives true (1), anything below gives false (0)

Known results for compounds:
O=C(c1ccc(O)cc1O)N1CCOCC2(CC(c3c(F)cccc3F)=NO2)C1 (stereo not shown)	true (1)
O=C(c1ccc(O)cc1O)N1CCC(c2ncccn2)CC1	true (1)
CCc1nccc(-c2ccc(O)c(C(=O)N3Cc4ccccc4C3)c2)n1	false (0)
O=C(c1ccc(O)cc1O)N1CCC(c2ccc(F)cc2)C1 (stereo not shown)	true (1)
O=C(c1ccc(O)cc1O)N1CCSC1	true (1)

Answer whether inhibition at 1 µM of O=C(c1ccc(O)cc1O)N1CCOC[C@@H]1c1ccccc1 is greater than or equal to 20%.
false (0)

Answer whether inhibition at 1 µM of O=C(c1ccc(O)cc1O)N1CCCCC1c1cccc(F)c1 (stereo not shown) is greater than or equal to 20%.
true (1)

Answer whether inhibition at 1 µM of O=C(c1ccc(O)cc1O)N1CCn2cnnc2C1 is greater than or equal to 20%.
false (0)

Answer whether inhibition at 1 µM of CN(Cc1ccc(Oc2ccccc2)cc1)C(=O)c1ccc(O)cc1O is greater than or equal to 20%.
true (1)

Answer whether inhibition at 1 µM of O=C(c1ccc(O)cc1O)N1CCCC(CCOc2ccccc2)C1 (stereo not shown) is greater than or equal to 20%.
true (1)

====

target: HSP-90 (Homo sapiens, UniProt P07900)
Construct: fused on or other part: 6-His tag at the C-terminus
measurement-protocol: HSP-90 SPA (scintillation proximity assay) competition binding assay, displacement of tritiated propyl-Geldanamycin
stated-conditions: read-out: % inhibition @ 10 μM
inhibition at 10 µM for assorted compounds
State the answer as a number, implicitly in %.

Below, each entry is followed by its recorded inhibition at 10 µM result.
O=C(c1ccc(O)cc1O)N1CCOCC(O)(COC2CCCC2)C1 (stereo not shown)	75.6
O=C(c1ccc(O)cc1O)N1CCOCC2(CC(c3ccccc3)=NO2)C1 (stereo not shown)	82.4
O=C(c1ccc(O)cc1O)N1CCC(CCc2cccc(Cl)c2)CC1	87.5

Case O=C(c1ccc(Cl)cc1O)N1Cc2ccccc2C1 , HSP-90 (Homo sapiens, UniProt P07900), inhibition at 10 µM recorded as 39

Case O=C(c1ccc(O)cc1O)N1CCc2ccccc2C1c1ccccc1 (stereo not shown) , HSP-90 (Homo sapiens, UniProt P07900), inhibition at 10 µM recorded as 87.8

Case CN(Cc1ccc(F)cc1)C(=O)c1ccc(O)cc1O , HSP-90 (Homo sapiens, UniProt P07900), inhibition at 10 µM recorded as 69.3

Case CN(Cc1ccccc1Cl)C(=O)c1ccc(O)cc1O , HSP-90 (Homo sapiens, UniProt P07900), inhibition at 10 µM recorded as 81.9

Case O=C(c1ccc(O)cc1O)N1CCC(COc2ccc(F)cc2Cl)C1 (stereo not shown) , HSP-90 (Homo sapiens, UniProt P07900), inhibition at 10 µM recorded as 77.8

Case O=C(c1ccc(O)cc1O)N1CCOCC(COCc2c(Cl)cccc2Cl)C1 (stereo not shown) , HSP-90 (Homo sapiens, UniProt P07900), inhibition at 10 µM recorded as 79

Case COc1ccc(CCN(C)C(=O)c2ccc(O)cc2O)cc1OC , HSP-90 (Homo sapiens, UniProt P07900), inhibition at 10 µM recorded as 54.4

====

inhibition at 1 µM for assorted compounds
target: HSP-90 (Homo sapiens, UniProt P07900)
Construct: fused on or other part: 6-His tag at the C-terminus
measurement-protocol: HSP-90 SPA (scintillation proximity assay) competition binding assay, displacement of tritiated propyl-Geldanamycin
stated-conditions: read-out: % inhibition @ 1 μM

O=C(c1ccc(O)cc1O)N1CCC2(CC1)CC(OCc1ccccc1F)CO2 (stereo not shown) [Example 51]	22.1%

Lab book: inhibition at 1 µM of O=C(c1ccc(O)cc1O)N1CCC2(C=Cc3cc(Cl)ccc3O2)CC1 [Example 79] noted as 57.7%

Lab book: inhibition at 1 µM of O=C(c1ccc(O)cc1O)N1CCCCC1CCC1CCCC1 (stereo not shown) [Example 44] noted as 82.4%

Lab book: inhibition at 1 µM of O=C(c1cc2ccccc2cc1O)N1Cc2ccccc2C1 [Example 24] noted as 5.4%

Lab book: inhibition at 1 µM of O=C(c1ccc(Cl)cc1O)N1Cc2ccccc2C1 [Example 26] noted as 1%

====

inhibition at 1 µM for assorted molecules
target: HSP-90 (Homo sapiens, UniProt P07900)
Construct: fused on or other part: 6-His tag at the C-terminus
measurement-protocol: HSP-90 SPA (scintillation proximity assay) competition binding assay, displacement of tritiated propyl-Geldanamycin
stated-conditions: read-out: % inhibition @ 1 μM
State the answer as a number, implicitly in %.

Below, each entry is followed by its recorded inhibition at 1 µM result.
COc1ccc(Cc2nnc3n2CCN(C(=O)c2ccc(O)cc2O)CC3)cc1	5
O=C(c1ccc(O)cc1O)N1CCc2ccccc2C1c1ccccc1 (centres unmarked)	64.5
O=C(c1ccc(O)cc1O)N1CCCCC1c1nccs1 (centres unmarked)	12
O=C(c1ccc(O)cc1O)N1CCOC(COc2cc(F)cc(F)c2)C1 (centres unmarked)	60.2

Shift focus to the following entry.
Lab book: inhibition at 1 µM of CN(CCc1ccccc1)C(=O)c1ccc(O)cc1O noted as 40.5

====

target: HSP-90 (Homo sapiens)
Construct: fused on or other part: 6-His tag at the C-terminus
measurement-protocol: HSP-90 SPA (scintillation proximity assay) competition binding assay, displacement of tritiated propyl-Geldanamycin
stated-conditions: read-out: % inhibition @ 1 μM
# inhibition at 1 µM >= 10% gives t, anything below gives f

Cc1noc(C)c1COCC1COCCN(C(=O)c2ccc(O)cc2O)C1 (stereo not drawn) [Example 98]	t
O=C(c1ccc(O)cc1O)N1CCc2nnc(-c3cccc4ccccc34)n2CC1 [Example 134]	f
O=C(c1ccc(O)cc1O)N1CCC(Oc2cccc(Cl)c2)CC1 [Example 69]	t
Cc1ccc(OCC2CCCN(C(=O)c3ccc(O)cc3O)C2)cn1 (stereo not drawn) [Example 60]	t

Note: attention shifts to another entry.
Answer whether inhibition at 1 µM of O=C(c1ccc(F)cc1O)N1Cc2ccccc2C1 [Example 29] is greater than or equal to 10%.
f

====

target: HSP-90 (Homo sapiens)
Construct: fused on or other part: 6-His tag at the C-terminus
measurement-protocol: HSP-90 SPA (scintillation proximity assay) competition binding assay, displacement of tritiated propyl-Geldanamycin
stated-conditions: read-out: % inhibition @ 1 μM
inhibition at 1 µM for assorted compounds
State the answer as a number, implicitly in %.

Below, each entry is followed by its recorded inhibition at 1 µM result.
O=C1CCCN1Cc1nnc2n1CCN(C(=O)c1ccc(O)cc1O)CC2	-7.3
O=C(c1ccc(O)cc1O)N1CCC(c2ccc(F)cc2)CC1	40.2
CCc1nc(COCC2CCN(C(=O)c3ccc(O)cc3O)C2)no1 (stereo not shown)	29.3
O=C(c1ccc(O)cc1O)N1CCN(c2cnccn2)CC(CO)C1 (stereo not shown)	-4.8
CC(C)(C)CC1CCCCN1C(=O)c1ccc(O)cc1O (stereo not shown)	64.8
O=C(c1cccc2cccnc12)N1Cc2ccccc2C1	0
COc1ccccc1-c1nnc(CN(C)C(=O)c2ccc(O)cc2O)o1	15.4
C[C@H](c1cccc2ccccc12)N(C)C(=O)c1ccc(O)cc1O	29

Lab book: inhibition at 1 µM of Cc1ccccc1C1CCCN1C(=O)c1ccc(O)cc1O (stereo not shown) noted as 82.7

Lab book: inhibition at 1 µM of CN(Cc1ccc(Cl)cc1)C(=O)c1ccc(O)cc1O noted as 26.9
